The following compounds are shown together with reported CC50 values.
# ASSAY REMARKS: Toxic concentration against HIV-1 IIIB in C8166 T-cells
# Type: ADME, cell-based
# EXPERIMENTAL CONTEXT: human, read-out: TC50 (the source's name)
Write the number in µM without appending the unit.

- COMPOUND: "CCCOP(=O)(OCCC)OCC1C=CC(n2cc(C)c(=O)[nH]c2=O)O1 (configuration not stated)"
  CC50 [µM]: 200
- COMPOUND: "Cc1cn(C2C=CC(COP(=O)(OCC(F)(F)F)OCC(F)(F)F)O2)c(=O)[nH]c1=O (configuration not stated)"
  CC50 [µM]: 500
- COMPOUND: "Cc1cn([C@H]2C=C[C@@H](CO)O2)c(=O)[nH]c1=O [STAVUDINE]"
  CC50 [µM]: 50
- COMPOUND: "CCCOP(=O)(OCC1C=CC(n2cc(C)c(=O)[nH]c2=O)O1)OCC(Cl)(Cl)Cl (configuration not stated)"
  CC50 [µM]: 500
- COMPOUND: "Cc1cn(C2C=CC(COP(=O)(OCC(Cl)(Cl)Cl)OCC(Cl)(Cl)Cl)O2)c(=O)[nH]c1=O (configuration not stated)"
  CC50 [µM]: 150
- COMPOUND: "COC(=O)C(C)NP(=O)(OCC1C=CC(n2cc(C)c(=O)[nH]c2=O)O1)OCC(Cl)(Cl)Cl (configuration not stated)"
  CC50 [µM]: 500

Below: the item to evaluate.
Request: Look up CC50: CCCOP(=O)(NC(C)C(=O)OC)OCC1C=CC(n2cc(C)c(=O)[nH]c2=O)O1 (configuration not stated)
Result: 250
